Measured values drawn from ChEMBL document CHEMBL1148851 for this set.

tested on: Staphylococcus aureus; experiment: Antibacterial activity against Staphylococcus aureus SA85 isolate; format: functional
Result Type: MIC

Q: Return MIC (reported value) for this compound: CCCCCCCCCCCC(=O)OCC(CO[C@@H]1O[C@H](CO)[C@H](O)[C@H](O)[C@H]1O)OC(=O)CCCCCCCCCCC (some centres not stated)
Ans: > 128 µg/mL

Q: Give recorded MIC. CCCCCCCC/C=C\CCCCCCCC(=O)OC(COC(=O)CCCCCCCCC)CO[C@@H]1O[C@H](CO)[C@@H](O)[C@H](O)[C@H]1O (some centres not stated)
Ans: 128 µg/mL

---

test system: Escherichia coli; experiment: Antibacterial activity against Escherichia coli ATCC 25922; assay type: functional
Result Type: MIC

Q: // Input: CCCCCCCC/C=C\CCCCCCCC(=O)OC(COC(=O)CCCCCCC)CO[C@@H]1O[C@H](CO)[C@H](O)[C@H](O)[C@H]1O (stereo partly drawn) . Output its MIC only.
Ans: > 128 µg/mL

Q: Read the entry CCCCC/C=C\C/C=C\CCCCCCCC(=O)OCC(CO[C@@H]1O[C@H](CO)[C@@H](O)[C@H](O)[C@H]1O)OC(=O)CCCCCCC/C=C\C/C=C\CCCCC (stereo in doubt; 9q) and write its reported MIC.
Ans: > 128 µg/mL

Q: Name the recorded MIC of the item CCCCCCCC/C=C\CCCCCCCC(=O)OCC(CO[C@@H]1O[C@H](CO)[C@@H](O)[C@H](O)[C@H]1O)OC(=O)CCCCCCC/C=C\CCCCCCCC (stereo partly drawn) in your answer.
Ans: > 128 µg/mL

Next:
Q: Report MIC for CCCCCCCC/C=C\CCCCCCCC(=O)OC(COC(=O)CCCCCCCCC)CO[C@@H]1O[C@H](CO)[C@H](O)[C@H](O)[C@H]1O (stereo partly drawn)
Ans: > 128 µg/mL

Q: Item CCCCCCCCCC(=O)OCC(CO[C@@H]1O[C@H](CO)[C@H](O)[C@H](O)[C@H]1O)OC(=O)CCCCCCCCC (stereo partly drawn) : provide MIC
Ans: > 128 µg/mL

---

Entries and their MIC values follow.
tested on: Mycobacterium tuberculosis; assay: Antibacterial activity against Mycobacterium tuberculosis H190 by dilution method; type: functional
Give your result in µg/mL as a bare value.

Examples with answers:
Q: Please report the measured MIC for CCCCC/C=C\C/C=C\CCCCCCCC(=O)OC(COC(=O)CCCCCCC)CO[C@@H]1O[C@H](CO)[C@H](O)[C@H](O)[C@H]1O (some centres not stated)
Ans: 128

Q: For the compound CC/C=C\C/C=C\C/C=C\CCCCCCCC(=O)OC(COC(=O)CCCCCCC)CO[C@@H]1O[C@H](CO)[C@@H](O)[C@H](O)[C@H]1O (some centres not stated) , report MIC.
Ans: 64

Q: Provide one value: measured MIC of CCCCC/C=C\C/C=C\CCCCCCCC(=O)OCC(CO[C@@H]1O[C@H](CO)[C@@H](O)[C@H](O)[C@H]1O)OC(=O)CCCCCCC/C=C\C/C=C\CCCCC (stereo in doubt; 9g)
Ans: 128

Others:
Q: Indicate the recorded MIC value for this compound: CC/C=C\C/C=C\C/C=C\CCCCCCCC(=O)OC(COC(=O)CCCCCCC)CO[C@@H]1O[C@H](CO)[C@H](O)[C@H](O)[C@H]1O (some centres not stated)
Ans: 128

Q: Return value of MIC for input CCCCCCCC(=O)OCC(CO[C@@H]1O[C@H](CO)[C@H](O)[C@H](O)[C@H]1O)OC(=O)CCCCCCC (some centres not stated) , no commentary.
Ans: 128
